# ASSAY TEXT: p53 small molecule agonists, cell-based qHTS assay with rat liver microsomes (AID 1963578)
# EXPERIMENTAL PARAMETERS: HCT-116 p53RE-bla, beta-lactamase ratio, 16 h; series mostly up to 66 µM
Results filed as inconclusive are left out. The source made the active and inactive calls. The call rests on the fitted dose curve.

COMPOUND	activation
COc1cc(N)c(Cl)cc1C(=O)NC1CN2CCC1CC2 (stereo unspecified)	inactive
O=NN1CCCCCC1	inactive
Nc1ccc([As](=O)(O)O)cc1	inactive
COc1ccc(C=O)cc1	inactive
CCC(=O)OC1(c2ccccc2)CCN(C)CC1	inactive
N#CCCO	inactive
CC1(C)C(C=C(Cl)Cl)C1C(=O)OC(C#N)c1cccc(Oc2ccccc2)c1 (stereo unspecified)	inactive
COc1ccc(C(CN(C)C)C2(O)CCCCC2)cc1 (stereo unspecified)	inactive
CC(O)CCO (stereo unspecified)	inactive
CCOP(=S)(OCC)Oc1ccc2c(C)c(Cl)c(=O)oc2c1	inactive
O=C(Cl)OCc1ccccc1	inactive
Brc1ccc(Oc2ccccc2)cc1	inactive
CCC(C)(C)c1ccc(O)cc1	inactive
COC(=O)c1ccccc1N	inactive
CN(C)c1ccc(N(C)C)cc1	inactive
C=CC#N	inactive
